Sourced from paper PMC9790248

assay: Rifampin (strong CYP3A inducer) DDI study, plasma pharmacokinetics; format: in vivo, human; details: both sexes, human, plasma, po, 100 mg, ripretinib 100 mg single oral dose alone, fasting, healthy participants (rifampin study, N = 21); read-out: AUC0–∞, arithmetic mean (SD)
Endpoint Label: AUC(0-inf)
Answer by giving the amount and then stating its unit.

The measured AUC(0-inf) associated with `CCn1c(=O)c(-c2cc(NC(=O)Nc3ccccc3)c(F)cc2Br)cc2cnc(NC)cc21` reads 6220 ng·h/mL

* * *

experiment: Pantoprazole (proton pump inhibitor) DDI study, plasma pharmacokinetics; type: in vivo, human; conditions: both sexes, human, plasma, po, ripretinib 50 mg single oral dose + pantoprazole 40 mg QD, fasting, healthy participants (N = 23); read-out: Cmax, geometric mean (CV%)
Endpoint Label: Cmax (ng/mL)
Could you give me the number in ng/mL? Just the number is fine.

For CCn1c(=O)c(-c2cc(NC(=O)Nc3ccccc3)c(F)cc2Br)cc2cnc(NC)cc21 [Ripretinib] the compound record lists Cmax as 298
